// data source = ChEMBL document CHEMBL1149355

# PROTOCOL_NOTES: Clearance in dog
# Type: ADME, organism-based, Canis lupus familiaris
# STUDY_CONDITIONS: in vivo

- RECORD_SMILES: "Cc1cccc(C#CCCc2cccc(Cl)c2)n1"
  clearance / mL/min/kg: 66

----------
# PROTOCOL_NOTES: Half life in dog
# Type: ADME, organism-based, Canis lupus familiaris
# STUDY_CONDITIONS: in vivo

- RECORD_SMILES: "Cc1cccc(C#CCCc2cccc(Cl)c2)n1"
  UNIT_LABEL: "h"
  half-life: 2

----------
# STUDY_TARGET: Metabotropic glutamate receptor 5 (Homo sapiens)
# Sequence (P41594 whole entry): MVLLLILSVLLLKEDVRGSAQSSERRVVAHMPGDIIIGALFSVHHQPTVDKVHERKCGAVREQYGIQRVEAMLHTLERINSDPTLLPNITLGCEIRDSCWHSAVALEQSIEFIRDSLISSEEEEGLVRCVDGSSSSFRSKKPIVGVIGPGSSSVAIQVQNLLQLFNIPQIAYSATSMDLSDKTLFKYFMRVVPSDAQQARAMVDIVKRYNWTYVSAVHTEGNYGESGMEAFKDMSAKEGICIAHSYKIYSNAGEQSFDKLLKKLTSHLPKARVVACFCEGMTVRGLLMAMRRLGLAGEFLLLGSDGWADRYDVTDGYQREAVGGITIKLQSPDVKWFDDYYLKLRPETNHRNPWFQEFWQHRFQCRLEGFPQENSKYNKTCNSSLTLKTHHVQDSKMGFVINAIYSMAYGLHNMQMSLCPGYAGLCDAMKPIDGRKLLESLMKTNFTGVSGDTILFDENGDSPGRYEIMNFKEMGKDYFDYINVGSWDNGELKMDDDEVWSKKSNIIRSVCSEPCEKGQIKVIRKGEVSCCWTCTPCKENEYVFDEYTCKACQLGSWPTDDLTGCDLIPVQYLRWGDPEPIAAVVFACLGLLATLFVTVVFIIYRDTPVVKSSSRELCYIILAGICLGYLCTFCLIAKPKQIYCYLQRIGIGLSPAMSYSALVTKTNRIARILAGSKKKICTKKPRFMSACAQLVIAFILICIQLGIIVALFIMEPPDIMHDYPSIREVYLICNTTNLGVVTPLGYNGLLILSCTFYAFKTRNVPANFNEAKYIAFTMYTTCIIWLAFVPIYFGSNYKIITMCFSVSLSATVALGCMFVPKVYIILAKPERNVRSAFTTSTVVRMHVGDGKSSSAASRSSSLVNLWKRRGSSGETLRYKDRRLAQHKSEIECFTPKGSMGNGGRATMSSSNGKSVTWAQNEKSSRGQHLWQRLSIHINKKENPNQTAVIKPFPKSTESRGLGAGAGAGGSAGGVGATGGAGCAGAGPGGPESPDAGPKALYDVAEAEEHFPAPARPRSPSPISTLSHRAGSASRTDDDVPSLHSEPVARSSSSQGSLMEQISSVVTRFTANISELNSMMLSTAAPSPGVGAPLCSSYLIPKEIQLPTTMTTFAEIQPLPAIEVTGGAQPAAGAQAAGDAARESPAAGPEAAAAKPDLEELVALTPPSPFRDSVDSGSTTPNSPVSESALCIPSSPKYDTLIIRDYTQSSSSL
# PROTOCOL_NOTES: Activity at human mGluR5d assessed as inhibition of glutamate-induced calcium influx by FLIPR assay
In this section we review reported IC50 values for a set of molecules.

- MOLECULE: "Cc1cccc(C#CCSc2cccc(Cl)c2)n1"
  IC50 [nM]: 43
- MOLECULE: "Cc1cccc(C#CCNc2cccc(Cl)c2)n1"
  IC50 [nM]: 174
- MOLECULE: "Cc1cccc(C#CCCc2cccc(Cl)c2)n1"
  IC50 [nM]: 5
- MOLECULE: "Cc1cccc(C#CC(Sc2cccc(Cl)c2)C(C)C)n1 (stereo unspecified)"
  IC50 [nM]: 461
- MOLECULE: "CCC(C#Cc1cccc(C)n1)Sc1cccc(Cl)c1 (stereo unspecified)"
  IC50 [nM]: 862
- MOLECULE: "Cc1cccc(C#CCCc2ccccc2)n1"
  IC50 [nM]: 78

----------
# PROTOCOL_NOTES: Intrinsic clearance in rat liver microsomes
# Assay type: ADME, Microsome

- RECORD_SMILES: "Cc1cccc(C#CCCc2cccc(Cl)c2)n1"
  microsomal CLint, µL/min/mg: 197

----------
# PROTOCOL_NOTES: Volume of distribution in dog
# Format: ADME, organism-based, Canis lupus familiaris
# STUDY_CONDITIONS: in vivo, read-out: Vss
QUANTITY_MEASURED: Vd (L/kg)

- RECORD_SMILES: "Cc1cccc(C#CCCc2cccc(Cl)c2)n1"
  EXPERIMENTAL_VALUE: 3.2

----------
# STUDY_TARGET: Metabotropic glutamate receptor 5 (Homo sapiens)
# PROTOCOL_NOTES: Activity at human mGluR5d assessed as inhibition of glutamate-induced calcium influx by FLIPR assay
QUANTITY_MEASURED: log10 IC50 (log10 of the value in nM)

- MOLECULE: "Cc1cccc(C#CC(C)Oc2cccc(Cl)c2)n1 (stereo not drawn)"
  log10 IC50: 2.45
- MOLECULE: "Cc1cccc(C#CC(C)Nc2cccc(Cl)c2)n1 (stereo not drawn)"
  log10 IC50: 2.85
- MOLECULE: "Cc1cccc(C#CC(C)Sc2cccc(Cl)c2)n1 (stereo not drawn)"
  log10 IC50: 2.07
- MOLECULE: "Cc1cccc(C#CCSc2ccccc2)n1"
  log10 IC50: 2.77
- MOLECULE: "Cc1cccc(C#CCNC(=O)c2cccc(Cl)c2)n1"
  log10 IC50: 3.42
- MOLECULE: "Cc1cccc(C#CCC(C)c2ccccc2)n1 (stereo not drawn)"
  log10 IC50: 1.77
- MOLECULE: "Cc1cccc(C#CCNc2ccccc2)n1"
  log10 IC50: 2.35
- MOLECULE: "Cc1cccc(C#CCCCc2ccccc2)n1"
  log10 IC50: 2.41
- MOLECULE: "Cc1cccc(C#CCN(C)c2ccccc2)n1"
  log10 IC50: 3.83
- MOLECULE: "Cc1cccc(C#Cc2cc3ccccc3s2)n1"
  log10 IC50: 2.49

----------
# STUDY_TARGET: Metabotropic glutamate receptor 5 (Homo sapiens)
# PROTOCOL_NOTES: Activity at human mGluR5d assessed as inhibition of glutamate-induced calcium influx by FLIPR assay

- COMPOUND: "Cc1cccc(C#CC[S+]([O-])c2ccccc2)n1 (stereo not drawn)"
  IC50: "> 10 µM"
- COMPOUND: "Cc1cccc(C#CCNC(=O)Nc2cccc(Cl)c2)n1"
  IC50: "> 10 µM"
- COMPOUND: "Cc1cccc(C#CC(=O)Nc2ccccc2)n1"
  IC50: "> 10 µM"
